Biological target: T1, IL-2 receptor overexpressed on HEK-Blue IL-2 reporter cells (InvivoGen) (UniProt P01589 22-272; P14784 27-551; P31785 23-369, limits assumed)
T1 sequence (looked up) 1: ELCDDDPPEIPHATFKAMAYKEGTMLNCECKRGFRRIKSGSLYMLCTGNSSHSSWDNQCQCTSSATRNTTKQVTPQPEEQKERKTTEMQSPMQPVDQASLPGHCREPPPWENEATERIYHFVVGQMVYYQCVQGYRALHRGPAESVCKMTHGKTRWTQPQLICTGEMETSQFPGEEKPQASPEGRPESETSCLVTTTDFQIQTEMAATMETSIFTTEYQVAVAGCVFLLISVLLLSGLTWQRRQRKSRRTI
T1 sequence (looked up) 2: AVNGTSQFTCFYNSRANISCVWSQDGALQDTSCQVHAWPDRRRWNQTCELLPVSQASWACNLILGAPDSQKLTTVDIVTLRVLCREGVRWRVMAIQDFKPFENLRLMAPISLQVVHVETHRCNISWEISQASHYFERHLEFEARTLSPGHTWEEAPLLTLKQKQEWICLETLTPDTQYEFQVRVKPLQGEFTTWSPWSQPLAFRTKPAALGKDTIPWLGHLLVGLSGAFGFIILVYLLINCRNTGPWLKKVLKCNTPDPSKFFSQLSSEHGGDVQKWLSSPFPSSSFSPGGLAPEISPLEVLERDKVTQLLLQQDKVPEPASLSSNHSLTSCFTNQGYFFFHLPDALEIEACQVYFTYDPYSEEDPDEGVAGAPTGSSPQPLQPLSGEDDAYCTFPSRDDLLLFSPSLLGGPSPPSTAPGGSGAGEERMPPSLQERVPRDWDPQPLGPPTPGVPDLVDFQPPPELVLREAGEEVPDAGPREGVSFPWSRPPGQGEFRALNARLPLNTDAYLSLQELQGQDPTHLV
T1 sequence (looked up) 3: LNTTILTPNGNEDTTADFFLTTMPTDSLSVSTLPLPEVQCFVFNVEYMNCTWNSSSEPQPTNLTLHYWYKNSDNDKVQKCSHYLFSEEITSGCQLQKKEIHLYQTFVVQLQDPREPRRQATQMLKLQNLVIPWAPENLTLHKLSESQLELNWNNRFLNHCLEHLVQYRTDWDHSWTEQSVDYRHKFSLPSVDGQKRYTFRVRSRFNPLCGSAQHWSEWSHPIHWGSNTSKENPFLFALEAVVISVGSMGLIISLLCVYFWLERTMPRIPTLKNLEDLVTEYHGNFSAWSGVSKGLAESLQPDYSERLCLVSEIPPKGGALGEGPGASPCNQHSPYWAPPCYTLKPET
Experiment: cell-based or functional assay
# EC50 (nM), HEK-Blue IL-2 reporter cells lacking PD-1 values compiled below
Dear colleague, please return just the value in nM, with no unit written.

Past entries and their recorded results:
Binder	Endpoint unit	Val
polypeptide comprising modified IL-2 (T3A, H16A, R38A, P65R, D84S, C125S) fused to the C-terminus of a PD-1-binding VHH (other, not shown: a dimerising Fc or GST; small tags and cut ends) APASSSTKKTQLQLEALLLDLQMILNGINNYKNPKLTAMLTFKFYMPKKATELKHLQCLEEELKRLEEVLNLAQSKNFHLRPRSLISNINVIVLELKGSETTFMCEYADETATIVEFLNRWITFSQSIISTLT	nM	2
polypeptide comprising modified IL-2 (T3A, H16A, Δ42, P65R, D84S, C125S) fused to the C-terminus of a PD-1-binding VHH (other, not shown: a dimerising Fc or GST; small tags and cut ends, also called IL-2-T3A-H16A-ΔF42-P65R-D84S-C125S) APASSSTKKTQLQLEALLLDLQMILNGINNYKNPKLTRMLTKFYMPKKATELKHLQCLEEELKRLEEVLNLAQSKNFHLRPRSLISNINVIVLELKGSETTFMCEYADETATIVEFLNRWITFSQSIISTLT	nM	4.2
polypeptide comprising modified IL-2 (T3A, H16A, K43E, P65R, D84S, C125S) fused to the C-terminus of a PD-1-binding VHH (other, not shown: a dimerising Fc or GST; small tags and cut ends) APASSSTKKTQLQLEALLLDLQMILNGINNYKNPKLTRMLTFEFYMPKKATELKHLQCLEEELKRLEEVLNLAQSKNFHLRPRSLISNINVIVLELKGSETTFMCEYADETATIVEFLNRWITFSQSIISTLT	nM	1.1

Please find the next binder below.
Input polypeptide comprising modified IL-2 (T3A, H16A, K43E, Y45R, P65R, D84S, C125S) fused to the C-terminus of a PD-1-binding VHH (other, not shown: a dimerising Fc or GST; small tags and cut ends) APASSSTKKTQLQLEALLLDLQMILNGINNYKNPKLTRMLTFEFRMPKKATELKHLQCLEEELKRLEEVLNLAQSKNFHLRPRSLISNINVIVLELKGSETTFMCEYADETATIVEFLNRWITFSQSIISTLT . Output EC50 (nM), HEK-Blue IL-2 reporter cells lacking PD-1: 1.5
